- Tested on: methicillin-resistant Staphylococcus aureus N315
- procedureSummary: MIC, microbroth dilution, MRSA
- Type: cell-based
- testSettings: Staphylococcus aureus, MRSA, read-out: MIC against Gram-positive bacteria, MRSA
Rule: MIC below 20 µg/mL gives label 1. Equal to or above 20 µg/mL gives label 0.

| compound | assignedClass |
| --- | --- |
| CCCCC(=O)N1C(=O)/C(=C(/C)O)C(=O)C1CC(C)C (centres unmarked) | label 1 |
| CCCCCCC/C=C/C(=O)N1C(=O)/C(=C(/C)O)C(=O)C1Cc1ccc(O)cc1 (centres unmarked) | label 0 |
| CCCCCCC/C=C/C(=O)N1CC(=O)/C(=C(\C)O)C1=O | label 1 |
| CCCCCCC/C=C/C(=O)N1C(=O)/C(=C(\O)C2CCNCC2)C(=O)C1CC(C)C (centres unmarked) | label 0 |
| CCCCCCC/C=C/C(=O)N1C(=O)/C(=C(\O)c2ccc(O)cc2)C(=O)C1CC(C)C (centres unmarked) | label 1 |
| CCCCCCC/C=C/C(=O)N1C(=O)/C(=C(/C)O)C(=O)C1CCC(=O)O (centres unmarked) | label 0 |
| C/C(O)=C1\C(=O)C(CC(C)C)N(C(=O)CCCCCc2ccccc2)C1=O (centres unmarked) | label 1 |
| CCCCCCC/C=C/C(=O)N1C(=O)/C(=C(\O)CCCC)C(=O)C1CC(C)C (centres unmarked) | label 1 |

* * *

- Tested on: methicillin-resistant Staphylococcus aureus N315
- procedureSummary: MIC, microbroth dilution, MRSA
- Format: cell-based
- testSettings: Staphylococcus aureus, MRSA, read-out: MIC against Gram-positive bacteria, MRSA
resultType: MIC (µg/mL)

| molecule | resultType | unit | modifier | reportedValue |
| --- | --- | --- | --- | --- |
| CCCCCCC/C=C/C(=O)N1C(=O)/C(=C(\O)c2ccccc2)C(=O)C1CC(C)C (centres unmarked) [Compound 7] | MIC | µg/mL | < | 0.1 |
| CCCCCCC/C=C/C(=O)N1C(=O)/C(=C(\O)c2ccc(F)cc2)C(=O)C1CC(C)C (centres unmarked) [Compound 13] | MIC | µg/mL | < | 0.1 |
| CCCCCCC/C=C/C(=O)N1C(=O)/C(=C(\O)c2ccncc2)C(=O)C1CC(C)C (centres unmarked) [Compound 8] | MIC | µg/mL | = | 12.5 |
| CCCCCCC/C=C/C(=O)N1C(=O)/C(=C(/C)O)C(=O)C1CO (centres unmarked) [Compound 15] | MIC | µg/mL | > | 200 |
| C/C(O)=C1\C(=O)C(CC(C)C)N(C(=O)C=Cc2ccccc2)C1=O (centres unmarked) [Compound 4] | MIC | µg/mL | = | 1.6 |

* * *

- System: Enterococcus faecalis ATCC 33186
- procedureSummary: MIC, microbroth dilution, Enterococcus faecalis
- Format: cell-based
- testSettings: Enterococcus faecalis, ATCC33186, read-out: MIC against Gram-positive bacteria, EF, Enterococcus faecalis ATCC 33186; Mueller-Hinton broth, 18–20 h
resultType: log10 MIC (log10 of the value in µg/mL)

| compound | reportedValue |
| --- | --- |
| CCCCCCC/C=C/C(=O)N1C(=O)/C(=C(/C)O)C(=O)C1CO (stereo not drawn) | 2.00 |
| CCCCCCC/C=C/C(=O)N1C(=O)/C(=C(\O)c2ccc(F)cc2)C(=O)C1CC(C)C (stereo not drawn) | -0.70 |
| CCCCCCC/C=C/C(=O)N1C(=O)/C(=C(\O)c2ccc(OCOCCOC)cc2)C(=O)C1CC(C)C (stereo not drawn) | -0.11 |
| CCCCCCC/C=C/C(=O)N1C(=O)/C(=C(/C)O)C(=O)C1Cc1ccc(OC(C)(C)C)cc1 (stereo not drawn) | -0.11 |
| C/C(O)=C1\C(=O)C(CC(C)C)N(C(=O)C=Cc2ccccc2)C1=O (stereo not drawn) | 1.10 |
| CCCCCCC/C=C/C(=O)N1C(=O)/C(=C(\O)c2ccc(O)cc2)C(=O)C1CC(C)C (stereo not drawn) | 1.10 |
| CCCCCCC/C=C/C(=O)N1C(=O)/C(=C(\O)c2ccccc2)C(=O)C1CC(C)C (stereo not drawn) | -0.41 |
| CCCCCCC/C=C/C(=O)N1C(=O)/C(=C(\O)CCCC)C(=O)C1CC(C)C (stereo not drawn) | -0.70 |
| CCCCCCC/C=C/C(=O)N1C(=O)/C(=C(\O)C2CCNCC2)C(=O)C1CC(C)C (stereo not drawn) | 1.70 |
| CCCCCCC/C=C/C(=O)N1C(=O)/C(=C(\O)c2ccncc2)C(=O)C1CC(C)C (stereo not drawn) | 1.70 |
| CCCCCCC/C=C/C(=O)N1C(=O)/C(=C(/C)O)C(=O)C1CCC(=O)O (stereo not drawn) | 1.40 |
| CCCCCCC/C=C/C(=O)N1C(=O)/C(=C(/C)O)C(=O)C1CCCCN (stereo not drawn) | 1.70 |
| CCCCCCC/C=C/C(=O)N1CC(=O)/C(=C(\C)O)C1=O | 0.80 |
| CCCCC(=O)N1C(=O)/C(=C(/C)O)C(=O)C1CC(C)C (stereo not drawn) | 1.70 |
| CCCCCCC/C=C/C(=O)N1C(=O)/C(=C(/C)O)C(=O)C1Cc1ccc(O)cc1 (stereo not drawn) | 1.70 |
